Here, each record is paired with measured pKi data.
- TESTED_SYSTEM: κOR (Homo sapiens)
- Construct: expressed in transfected cells; host or cells: HEK 293T cells, transient transfection, membrane preparation
- MEASUREMENT_NOTES: competitive radioligand binding with [3H]diprenorphine, membranes of transfected HEK 293T cells
Quick note: pKi values are minus log10 of concentrations in mol/L.

The examples below pair each entry with its known result.
- COMPOUND: "CN(C)[C@H](COC(=O)C=Cc1ccccc1)Cc1ccc(O)cc1 (stereo in doubt) [Comparative Example 2, reference compound]"
  pKi: 6.49
- COMPOUND: "CN(C)[C@](C)(CNC(=O)C=Cc1ccccc1)Cc1ccc(O)cc1 (stereo in doubt)"
  pKi: 6.01
- COMPOUND: "CN[C@H](CNC(=O)/C=C/c1cccc(C(F)(F)F)c1)Cc1c(C)cc(O)cc1C"
  pKi: 6.51

Let's switch to this compound now.
Query :: Fill in pKi for record "Cc1cc(O)cc(C)c1C[C@H](N)CNC(=O)/C=C/c1ccccc1"
Result :: 6.36

From: patent EP3964497A1
